Assignment: determine reported Tumor Diameter for the given compounds.
Test system: SAOS-2
procedure_details: Suppression of doxorubicin-senescent SAOS-2 tumors in nude mice, Example 19
Assay type: in vivo, mouse
conditions_used: after DOX 10 mg/kg ip; 21 days daily; LX-5701 360 mg/kg po, LX-2101 20 mg/kg ip, LX-2102 10 mg/kg ip; DOX repeated as control

Here is how some compounds turned out for Tumor Diameter.
COC(=O)[C@]12CCC(C)(C)C[C@H]1[C@H]1C(=O)C=C3[C@@]4(C)C=C(C#N)C(=O)C(C)(C)[C@@H]4CC[C@@]3(C)[C@]1(C)CC2
7.1 (±2.6) mm
CC1(C)CC[C@]2(NC(=O)C(C)(F)F)CC[C@]3(C)[C@H](C(=O)C=C4[C@@]5(C)C=C(C#N)C(=O)C(C)(C)[C@@H]5CC[C@]43C)[C@@H]2C1
6.8 (±1.4) mm
O=C1C2CCN(CC2)C1CNC(=O)C(F)(F)F (stereo not shown)
6.1 (±4.9) mm

Exercise: Entry COc1cccc2c1C(=O)c1c(O)c3c(c(O)c1C2=O)C[C@@](O)(C(=O)CO)C[C@@H]3O[C@H]1C[C@H](N)[C@H](O)[C@H](C)O1 : reported Tumor Diameter = ?
Key: 16.1 (±0.9) mm

###

Assignment: determine reported Ctsk mRNA (%) for the given compounds.
Tested on: naturally aged C57BL6J mice
procedure_details: Osteoclast marker mRNA (Ctsk, Ocstamp, Oscar, Rank, Trap) in femur of naturally aged mice, Example 21-14, Table 29
Type: in vivo, mouse
conditions_used: left femur, untreated aged = 100%

Here is how some compounds turned out for Ctsk mRNA (%).
CC1(C)CC[C@]2(NC(=O)C(C)(F)F)CC[C@]3(C)[C@H](C(=O)C=C4[C@@]5(C)C=C(C#N)C(=O)C(C)(C)[C@@H]5CC[C@]43C)[C@@H]2C1 [LX-2101, Omaveloxolone]
61 (±12.1) %
O=C1C2CCN(CC2)C1CNC(=O)C(F)(F)F (stereo not shown) [LX-5701]
57 (±13.0) %
Cc1cccc([C@H](C)c2cnc[nH]2)c1C [LX-6807, Dexmedetomidine]
42 (±2.7) %

Moving on to another compound below.
Exercise: Entry CCCC\C=C/C=C/C=C\CCCCCCCC(=O)O [LX-2707, Punicic acid] : reported Ctsk mRNA (%) = ?
Key: 64 (±8.6) %

###

System: naturally aged mice
procedure_details: Anti-aging evaluation in naturally aged mice, Example 31, Table 55;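 also: Vehicle-dosed control mice received solution alone at matching volume, values compare test-compound-treated aged mice against that control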
Format: in vivo, mouse
conditions_used: skin, untreated = 1.0
readout_kind: Skin SDF1 mRNA (fold)
Numbers only, in fold.

Here is how some compounds turned out for Skin SDF1 mRNA.
CN(NC(=O)CC(=O)NN(C)C(=S)c1ccccc1)C(=S)c1ccccc1
2.2
Cc1nnc(-c2cc(C(=O)N3CCC(c4ccc(C#N)cc4)CC3)c(C)cc2C2CCC2)[nH]1
1.9
CN(C)c1cccc(-c2c3c(=O)n(-c4ccccc4Cl)[nH]c3cc(=O)n2C)c1
1.7
CC12CCN(CC1)C(CN(C1CC1)S(C)(=O)=O)C2=O (stereo not drawn)
1.6

Fill in Skin SDF1 mRNA for each of the 2 compounds listed.
1. C[S+]([O-])CCCCN=C=S (stereo not drawn)
2. CCNCc1nc2c(O)c(Cl)cc(Cl)c2c(=O)n1C

Key:
1: 2.6; 2: 2.6

###

System: senescent cells
procedure_details: Viability of senescent cells (CellTiter-Glo), Example 17, Table 13
conditions_used: Homo sapiens, read-out: Survival (%)
readout_kind: viability at 1.1 µM (%)
Answers are plain numbers, in %.

Here is how some compounds turned out for viability at 1.1 µM.
[2H]C12CCN(CC1)C(CO)(COC)C2=O (stereo not shown)
91.5
CCCCC[C@H](O)CC[C@@H]1[C@H]2Cc3cccc(OCC(=O)O)c3C[C@H]2C[C@H]1O
1.8
N=C(NC(=N)N1CCCC1)Nc1ccc(OC(F)(F)F)cc1
94.5

Exercise: Entry CCCCCCCC/C(=C\CCCCCCCC(=O)O)[N+](=O)[O-] : reported viability at 1.1 µM = ?
Key: 78.1

###

Assignment: determine reported HMGN1 for the given molecules.
Tested on: HMGN1 secreted from senescent A549 cells
procedure_details: HMGN1 secretion (ELISA) from senescent A549 cancer cells, Example 12;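 also: A549 cells made senescent by doxorubicin exposure, with DMSO-treated cells serving as the non-senescent control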
Type: cell-based, human
conditions_used: senescent untreated = 100%; 30 μM; 90 μM for LX-305, 905, 1302, 1601, 1603, 2003, 2702, 2901, 3106; 270 μM for LX-1103, 2005, 2007
Give bare numbers, in %.

Fill in HMGN1 for each of the 7 molecules listed.
1. C[C@H]1[C@H](C)CC[C@]2(C(=O)O)CC[C@]3(C)C(=CC[C@@H]4[C@@]5(C)C[C@@H](O)[C@H](O)C(C)(C)[C@@H]5CC[C@]43C)[C@H]12
2. CO[C@]1(C(=O)N[C@@H](C)c2ccc(-n3cc(F)cn3)nc2)CC[C@H](c2nc(C)cc(Nc3cc(C)[nH]n3)n2)CC1
3. CCOC(=O)[C@@H](N)CCC(=O)N[C@@H](CSCc1ccccc1)C(=O)N[C@@H](C(=O)OCC)c1ccccc1
4. CC(=O)N[C@@H](Cc1c[nH]c2ccccc12)C(=O)N[C@@H](CCC(=O)C=[N+]=[N-])C(=O)OC(C)C
5. Cc1[nH]nc(C(F)(F)F)c1Cc1sc2c(c1C(=O)N1C[C@](C)(O)CO1)c(=O)n(C)c(=O)n2C(C)C
6. C=C(C)[C@@H]1CC[C@]2(C(=O)O)CC[C@]3(C)[C@H](CC[C@@H]4[C@@]5(C)CC[C@H](O)C(C)(C)[C@@H]5CC[C@]43C)[C@@H]12
7. CC1(C)CC[C@]2(C(=O)O)CC[C@]3(C)C(=CC[C@@H]4[C@@]5(C)CC[C@H](O)C(C)(C)[C@@H]5CC[C@]43C)[C@@H]2C1

Key:
[314, 271, 283, 309, 293, 252, 218]

Fill in HMGN1 for each of the 5 molecules listed.
1. COC(=O)c1ccc([C@H]2c3[nH]c4ccccc4c3C[C@H](C(=O)OC)N2C(=O)CCl)cc1
2. Fc1ccc(-n2cc(CCCCN3CCC4(CC3)OCc3ccccc34)c3ccccc32)cc1
3. CC(C)c1onc(C(=O)N2CCN(C(c3ccccc3)c3ccccc3)CC2)c1[N+](=O)[O-]
4. CCN(CC)C(=S)SSC(=S)N(CC)CC
5. CCc1nc(C(N)=O)c(Nc2ccc(N3CCC(N4CCN(C)CC4)CC3)c(OC)c2)nc1NC1CCOCC1

Key:
1. 310
2. 324
3. 277
4. 257
5. 239

Fill in HMGN1 for each of the 4 molecules listed.
1. COC(=O)[C@]12CCC(C)(C)C[C@H]1[C@H]1C(=O)C=C3[C@@]4(C)C=C(C#N)C(=O)C(C)(C)[C@@H]4CC[C@@]3(C)[C@]1(C)CC2
2. Cc1nnc(-c2cc(C(=O)N3CCC(c4ccc(C#N)cc4)CC3)c(C)cc2C2CCC2)[nH]1
3. O=C(O)c1cc(/N=N/c2ccc(S(=O)(=O)Nc3ccccn3)cc2)ccc1O
4. CCn1c(C#CCNc2ccccc2)cc2cc(CNC)ccc21

Key:
233
227
147
217

###

Assignment: determine reported Survival (%) for the given compounds.
Tested on: senescent A549 cells
procedure_details: Viability of senescent A549 cells (CellTiter-Glo), Example 18, Table 15
conditions_used: 10 μM; doxorubicin-induced senescent A549 cells; 0 μM = 100%
Give bare numbers, in %.

CN(CCOc1ccc(CC2SC(=O)NC2=O)cc1)c1ccccn1 (stereo not shown)
39.8
CCNCc1nc2c(O)c(Cl)cc(Cl)c2c(=O)n1C
62.3

Fill in Survival (%) for each of the 5 compounds listed.
1. CCCCCCCCCCCCCCCCCCCC(=O)N[C@H]1CC[C@@]2(C)[C@@H](C1)C[C@@H](O)[C@@H]1[C@@H]2C[C@H](O)[C@]2(C)[C@@H]([C@H](C)CCC(=O)O)CC[C@@H]12
2. CCCCCC/C=C\CCCCCCCCCC(=O)N[C@H]1[C@H](OC[C@H]2O[C@H](OP(=O)([O-])[O-])[C@H](NC(=O)CC(=O)CCCCCCCCCCC)[C@@H](OCCCCCCCCCC)[C@@H]2O)O[C@H](COC)[C@@H](OP(=O)([O-])[O-])[C@@H]1OCC[C@@H](CCCCCCC)OC.[Na+].[Na+].[Na+].[Na+] [LX-9136, Eritoran tetrasodium]
3. CN(CC(=O)Nc1nc2ccc(OC(F)(F)F)cc2s1)C(=O)CNC(=O)CN
4. COC[C@]1(CO)C(=O)[C@H]2CC[N@]1[C@H](C)C2
5. Nc1cc(COc2c(Cl)cc(C[C@H](N)C(=O)O)cc2Cl)c2oc(-c3ccccc3)nc2c1

Key:
1: 74.4; 2: 70.9; 3: 53.1; 4: 30.6; 5: 34.5
